The measured values listed here are drawn from patent US20250276077A1.

# targetOrSystem: Human EphA2 (ephrin receptor A2) on cells (human, UniProt P29317 25-976)
# Sequence (P29317 25-976): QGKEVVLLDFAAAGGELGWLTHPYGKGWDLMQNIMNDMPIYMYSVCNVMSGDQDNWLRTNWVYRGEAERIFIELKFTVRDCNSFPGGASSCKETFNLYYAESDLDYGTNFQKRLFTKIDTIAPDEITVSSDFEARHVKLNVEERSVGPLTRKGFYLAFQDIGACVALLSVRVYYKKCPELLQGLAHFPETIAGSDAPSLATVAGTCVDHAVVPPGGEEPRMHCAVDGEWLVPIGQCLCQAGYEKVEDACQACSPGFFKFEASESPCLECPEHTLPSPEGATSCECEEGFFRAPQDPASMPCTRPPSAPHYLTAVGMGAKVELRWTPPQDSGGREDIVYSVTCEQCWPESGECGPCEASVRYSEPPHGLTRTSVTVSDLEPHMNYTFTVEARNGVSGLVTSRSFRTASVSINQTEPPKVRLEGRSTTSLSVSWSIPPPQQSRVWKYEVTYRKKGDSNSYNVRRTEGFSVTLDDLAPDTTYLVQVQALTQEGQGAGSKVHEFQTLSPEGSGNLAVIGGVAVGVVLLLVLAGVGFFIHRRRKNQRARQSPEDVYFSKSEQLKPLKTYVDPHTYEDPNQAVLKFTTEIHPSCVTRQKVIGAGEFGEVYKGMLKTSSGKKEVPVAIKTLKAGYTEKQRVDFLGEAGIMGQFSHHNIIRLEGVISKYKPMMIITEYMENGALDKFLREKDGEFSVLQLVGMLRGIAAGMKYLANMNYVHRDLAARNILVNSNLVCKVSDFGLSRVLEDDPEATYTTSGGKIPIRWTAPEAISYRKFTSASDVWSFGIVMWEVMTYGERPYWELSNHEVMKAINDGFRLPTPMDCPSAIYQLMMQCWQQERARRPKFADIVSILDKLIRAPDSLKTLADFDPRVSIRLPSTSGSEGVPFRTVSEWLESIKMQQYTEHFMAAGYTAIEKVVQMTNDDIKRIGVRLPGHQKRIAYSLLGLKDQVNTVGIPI
# measurementDescription: cell-based or functional assay
Threshold 30 nM. ADCC EC50 (nM), A549 cells below it: YES. ADCC EC50 (nM), A549 cells at it or above: NO.

Please review the following examples before continuing.
[[record]]
binder = "AB-009814 (antibody, mouse IgG2a, V domains shown) VH: QVQLQQWGAGLLKPSETLSLTCAVYGGSFSDYYWSWIRQPPGKGLEWIGEVNHRGSINYNPSLKSRVTISVDPSKNQFSLKLTSVTAADTAVYYCAKPLRPHCTNGVCYSGDAFDIWGQGTMVTVAS VL: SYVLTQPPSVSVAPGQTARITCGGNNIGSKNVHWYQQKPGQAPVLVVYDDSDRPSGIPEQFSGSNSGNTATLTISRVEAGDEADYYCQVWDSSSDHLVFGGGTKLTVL"
discretelabel = "NO"

[[record]]
binder = "AB-009815 (antibody, mouse IgG2a, V domains shown) VH: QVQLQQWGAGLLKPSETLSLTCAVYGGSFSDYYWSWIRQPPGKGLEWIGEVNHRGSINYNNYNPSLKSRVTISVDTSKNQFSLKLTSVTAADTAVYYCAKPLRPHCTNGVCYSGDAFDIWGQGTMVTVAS VL: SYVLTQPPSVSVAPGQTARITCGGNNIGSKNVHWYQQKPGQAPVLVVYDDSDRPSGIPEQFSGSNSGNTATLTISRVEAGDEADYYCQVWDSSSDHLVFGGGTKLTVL"
discretelabel = "YES"

[[record]]
binder = "AB-009812 (antibody, mouse IgG2a, V domains shown) VH: QVQLQQWGAGLLKPSETLSLTCAVYGGSFSDYYWSWIRQPPGKGLEWIGEVNHSGSINYNNYNPSLKSRVTISVDPSKNQFSLKLTSVTAADTAVYYCAKPLRPHCTNGVCYSGDAFDIWGQGTMVTVAS VL: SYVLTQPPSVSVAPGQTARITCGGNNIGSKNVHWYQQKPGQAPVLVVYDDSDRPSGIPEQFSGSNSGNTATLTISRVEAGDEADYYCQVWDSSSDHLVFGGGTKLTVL"
discretelabel = "NO"

[[record]]
binder = "AB-009813 (antibody, mouse IgG2a, V domains shown) VH: QVQLQQWGAGLLKPSETLSLTCAVYGGSFSDYYWSWIRQPPGKGLEWIGEVNHAGSINYNNYNPSLKSRVTISVDPSKNQFSLKLTSVTAADTAVYYCAKPLRPHCTNGVCYSGDAFDIWGQGTMVTVAS VL: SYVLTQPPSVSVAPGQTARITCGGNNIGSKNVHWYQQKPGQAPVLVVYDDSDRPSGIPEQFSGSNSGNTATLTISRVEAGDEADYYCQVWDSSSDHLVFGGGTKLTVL"
discretelabel = "YES"


Here's the next entry for you.
Please let me know if AB-009816 (antibody, mouse IgG2a, V domains shown) VH: QVQLQQWGAGLLKPSETLSLTCAVYGGSFSDYYWSWIRQPPGKGLEWIGEVNHRGSINYNNYNPSLKSRVTISVDASKNQFSLKLTSVTAADTAVYYCAKPLRPHCTNGVCYSGDAFDIWGQGTMVTVAS VL: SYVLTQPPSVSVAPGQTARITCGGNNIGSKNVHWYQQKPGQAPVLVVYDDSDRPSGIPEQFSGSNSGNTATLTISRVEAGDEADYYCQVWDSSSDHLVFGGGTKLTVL shows ADCC EC50 (nM), A549 cells below 30 nM. YES
